# target_of_assay: SARS-CoV-2 S on pseudovirions (Wuhan Hu-1 / IL1/2020, last 18 amino acids removed) (SARS-CoV-2, UniProt P0DTC2 14-1273)
# assay_details: cell-based or functional assay
Each entry below lists one item and its recorded Mean IC50, pSV neutralization value.

binder: COV_1149 (antibody, V domains shown, human IgG1) VH: QVQLVESGGGVVQPGRSLRLSCAASGFTFSSYGMHWVRQAPGKGLEWVAVISYDGSNKYYADSVKGRFTISRDNSKNTLYLQMNSLRAEDTAVYYCAKTGGGYSYGLGNVWGQGTLVTVSS VL: QSALTQPASVSGSPGQSITISCTGTSSDVGGYNYVSWYQQHPGKAPKLMIYDVSNRPSGVSNRFSGSKSGNTASLTISGLQAEDEADYYCSSYTSSSTLVVFGGGTKLTVLG
Mean IC50, pSV neutralization: ≥ 25 µg/ml

binder: COV_1007 (antibody, V domains shown, human IgG1) VH: QVTLKESGPVLVKPTETLTLTCTVSGFSLINARVGVSWIRQPPGKALDWLAHIFSSDEKSYSTSLKSRLTISKDTSKSQVVLTMTNMDPVDTATYYCARIRWLSSYYFDYWGQGTLVTVSS VL: DIRMTQSPSSVSASVGDRVTITCRASQGISNWLAWYQQKPGKAPKLLIYAASSLQSGVPSRFSGGGSGTDFTLTISSLQPEDFATYYCQQANSFLLTFGGGTKVEIK
Mean IC50, pSV neutralization: 9 µg/ml

Could you now consider this next binder?
Fill blank: measured Mean IC50, pSV neutralization of the binder COV_1087 (antibody, V domains shown) VH: QVQLVQSGAEVQKPGASVKVSCKASGDTFSYHYVHWVRQAPGYGLEWMGIIDPRNADTNYTQKFQGRVTMTTDTSTNTVFLELSSLTSDDTAVYYCARAPDQYFDYWGQGSPVTVSA VL: DIVMTQTPLSSPVTLGQPASISCKSSESLLHSDGNTYLSWLQQRPGQPPRLLIYRVSNRFSGVPDRFSGSGAGTDFTLRISRVEAEDVGVYYCMQATQFPRTFGQGTKVEIKR is ____.
≥ 25 µg/ml
